Hello, the source for this data is patent US10208081B2, in case you need it.

target: human FXR (NR1H4) (Homo sapiens (Human)); experiment: Human FXR (NR1H4) Assay (Gal4 promoter driven luciferase reporter, Indigo Bioscience kit IB00601); type: cell-based; conditions: efficacy normalized to CDCA set as 100%
Answer each item with its documented Efficacy (%).
Please state the value followed by its unit.

Exam item: State its Efficacy (%) for this compound: CC[C@H]1[C@@H](O)[C@@H]2[C@H](CC[C@]3(C)[C@@H]([C@H](C)CCNC(=O)NS(=O)(=O)c4cccc(C)c4)CC[C@@H]23)[C@@]2(C)CC[C@@H](O)C[C@@H]12 [Example 13]
Marked response: 245%

Exam item: State its Efficacy (%) for this compound: CC[C@H]1[C@@H](O)[C@@H]2[C@H](CC[C@]3(C)[C@@H]([C@H](C)CCNC(=O)NS(=O)(=O)c4ccc(-c5ccccc5)s4)CC[C@@H]23)[C@@]2(C)CC[C@@H](O)C[C@@H]12 [Example 108]
Marked response: 203%

Exam item: State its Efficacy (%) for this compound: CC[C@H]1[C@@H](O)[C@@H]2[C@H](CC[C@]3(C)[C@@H]([C@H](C)CCNC(=O)NS(=O)(=O)c4ccc(-c5ccno5)cc4OC)CC[C@@H]23)[C@@]2(C)CC[C@@H](O)C[C@@H]12 [Example 73]
Marked response: 444%

Exam item: State its Efficacy (%) for this compound: CC[C@H]1[C@@H](O)[C@@H]2[C@H](CC[C@]3(C)[C@@H]([C@H](C)CCCNC(=O)NS(=O)(=O)c4ccc5ccccc5c4)CC[C@@H]23)[C@@]2(C)CC[C@@H](O)C[C@@H]12 [Example 19]
Marked response: 323%

Exam item: State its Efficacy (%) for this compound: CC[C@H]1[C@@H](O)[C@@H]2[C@H](CC[C@]3(C)[C@@H]([C@H](C)CCNC(=O)NS(=O)(=O)Nc4ccc(C(C)(C)C)cc4)CC[C@@H]23)[C@@]2(C)CC[C@@H](O)C[C@@H]12 [Example 105]
Marked response: 322%

Exam item: State its Efficacy (%) for this compound: CC[C@H]1[C@@H](O)[C@@H]2[C@H](CC[C@]3(C)[C@@H]([C@H](C)CCNC(=O)NS(=O)(=O)C4CCC(C(C)(C)C)CC4)CC[C@@H]23)[C@@]2(C)CC[C@@H](O)C[C@@H]12 (some centres unmarked) [Example 88]
Marked response: 378%

Exam item: State its Efficacy (%) for this compound: CC[C@H]1[C@@H](O)[C@@H]2[C@H](CC[C@]3(C)[C@@H]([C@H](C)CCNC(=O)NS(=O)(=O)c4ccc5c(c4)CCC5)CC[C@@H]23)[C@@]2(C)CC[C@@H](O)C[C@@H]12 [Example 55]
Marked response: 271%

Exam item: State its Efficacy (%) for this compound: CC[C@H]1[C@@H](O)[C@@H]2[C@H](CC[C@]3(C)[C@@H]([C@H](C)CCCNC(=O)NS(=O)(=O)C4CC4)CC[C@@H]23)[C@@]2(C)CC[C@@H](O)C[C@@H]12 [Example 20]
Marked response: 334%

Exam item: State its Efficacy (%) for this compound: CC[C@H]1[C@@H](O)[C@@H]2[C@H](CC[C@]3(C)[C@@H]([C@H](C)CCNC(=O)NS(=O)(=O)c4cccc(F)c4)CC[C@@H]23)[C@@]2(C)CC[C@@H](O)C[C@@H]12 [Example 51]
Marked response: 319%

Exam item: State its Efficacy (%) for this compound: CC[C@H]1[C@@H](O)[C@@H]2[C@H](CC[C@]3(C)[C@@H]([C@H](C)CCCCNS(=O)(=O)C(C)(C)C)CC[C@@H]23)[C@@]2(C)CC[C@@H](O)C[C@@H]12 [Example 136]
Marked response: 159%

Exam item: State its Efficacy (%) for this compound: CC[C@H]1[C@@H](O)[C@@H]2[C@H](CC[C@]3(C)[C@@H]([C@H](C)CCNS(=O)(=O)C(C)(C)C)CC[C@@H]23)[C@@]2(C)CC[C@@H](O)C[C@@H]12 [Example 139]
Marked response: 138%

Exam item: State its Efficacy (%) for this compound: CC[C@H]1[C@@H](O)[C@@H]2[C@H](CC[C@]3(C)[C@@H]([C@H](C)CCNC(=O)NS(=O)(=O)c4ccc(C)c(F)c4)CC[C@@H]23)[C@@]2(C)CC[C@@H](O)C[C@@H]12 [Example 16]
Marked response: 265%

Exam item: State its Efficacy (%) for this compound: CC[C@H]1[C@@H](O)[C@@H]2[C@H](CC[C@]3(C)[C@@H]([C@H](C)CCNC(=O)NS(=O)(=O)N4CCN(C(=O)C(C)(C)C)CC4)CC[C@@H]23)[C@@]2(C)CC[C@@H](O)C[C@@H]12 [Example 85]
Marked response: 324%

Exam item: State its Efficacy (%) for this compound: CC[C@H]1[C@@H](O)[C@@H]2[C@H](CC[C@]3(C)[C@@H]([C@H](C)CCNC(=O)NS(=O)(=O)c4ccc(C)c(C)c4)CC[C@@H]23)[C@@]2(C)CC[C@@H](O)C[C@@H]12 [Example 17]
Marked response: 357%

* * *

biological target: human FXR (NR1H4) (Homo sapiens (Human)); experiment: Human FXR (NR1H4) Assay (Gal4 promoter driven luciferase reporter, Indigo Bioscience kit IB00601); conditions: potency ranges
pEC50: −log10 of the molar value.
ASSAY METRIC: pEC50

Exam item: State its pEC50 for this compound: `CC[C@H]1[C@@H](O)[C@@H]2[C@H](CC[C@]3(C)[C@@H]([C@H](C)CCNC(=O)NS(=O)(=O)c4cc(F)cc(OC)c4)CC[C@@H]23)[C@@]2(C)CC[C@@H](O)C[C@@H]12`
Marked response: > 7.00

Exam item: State its pEC50 for this compound: `CC[C@H]1[C@@H](O)[C@@H]2[C@H](CC[C@]3(C)[C@@H]([C@H](C)CCNC(=O)NS(=O)(=O)Cc4ccccc4)CC[C@@H]23)[C@@]2(C)CC[C@@H](O)C[C@@H]12`
Marked response: 6.00 to 7.00

Exam item: State its pEC50 for this compound: `CC[C@H]1[C@@H](O)[C@@H]2[C@H](CC[C@]3(C)[C@@H]([C@H](C)CCCNC(=O)NS(=O)(=O)c4ccc(OC(F)(F)F)cc4)CC[C@@H]23)[C@@]2(C)CC[C@@H](O)C[C@@H]12`
Marked response: > 7.00

Exam item: State its pEC50 for this compound: `CC[C@H]1[C@@H](O)[C@@H]2[C@H](CC[C@]3(C)[C@@H]([C@H](C)CCNC(=O)NS(=O)(=O)c4ccc5c(c4)CCN5C(C)=O)CC[C@@H]23)[C@@]2(C)CC[C@@H](O)C[C@@H]12`
Marked response: 5.00 to 6.00

* * *

target: human FXR (NR1H4) (Homo sapiens (Human), UniProt Q96RI1); experiment: Human FXR (NR1H4) Assay (Gal4 promoter driven luciferase reporter, Indigo Bioscience kit IB00601); details: potency ranges
Sequence (Q96RI1 whole entry, the tested form may be a part): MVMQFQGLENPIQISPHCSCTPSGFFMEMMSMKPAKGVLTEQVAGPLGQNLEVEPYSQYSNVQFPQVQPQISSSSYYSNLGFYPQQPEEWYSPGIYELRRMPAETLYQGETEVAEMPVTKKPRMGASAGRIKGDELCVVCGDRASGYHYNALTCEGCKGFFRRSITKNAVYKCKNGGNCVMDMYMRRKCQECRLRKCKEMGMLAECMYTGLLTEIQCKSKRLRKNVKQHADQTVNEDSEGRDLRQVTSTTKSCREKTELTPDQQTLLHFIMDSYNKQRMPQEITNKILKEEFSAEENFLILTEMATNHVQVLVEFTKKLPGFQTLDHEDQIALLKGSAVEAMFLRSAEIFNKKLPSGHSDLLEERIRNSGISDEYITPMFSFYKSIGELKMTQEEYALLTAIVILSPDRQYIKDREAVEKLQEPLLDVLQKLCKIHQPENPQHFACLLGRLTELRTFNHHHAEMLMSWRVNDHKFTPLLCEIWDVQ
pEC50: −log10 of the molar value.
ASSAY METRIC: pEC50

Exam item: State its pEC50 for this compound: `CC[C@H]1[C@@H](O)[C@@H]2[C@H](CC[C@]3(C)[C@@H]([C@H](C)CCNC(=O)NS(=O)(=O)C4CCCCC4)CC[C@@H]23)[C@@]2(C)CC[C@@H](O)C[C@@H]12`
Marked response: > 7.00

Exam item: State its pEC50 for this compound: `CC[C@H]1[C@@H](O)[C@@H]2[C@H](CC[C@]3(C)[C@@H]([C@H](C)CCNC(=O)NS(=O)(=O)N4C[C@H](C)C[C@H](C)C4)CC[C@@H]23)[C@@]2(C)CC[C@@H](O)C[C@@H]12`
Marked response: > 7.00

Exam item: State its pEC50 for this compound: `CC[C@H]1[C@@H](O)[C@@H]2[C@H](CC[C@]3(C)[C@@H]([C@H](C)CCNC(=O)NS(=O)(=O)c4cccc(F)c4)CC[C@@H]23)[C@@]2(C)CC[C@@H](O)C[C@@H]12`
Marked response: > 7.00

Exam item: State its pEC50 for this compound: `CC[C@H]1[C@@H](O)[C@@H]2[C@H](CC[C@]3(C)[C@@H]([C@H](C)CCNC(=O)NS(=O)(=O)c4ccc(N(C)C)cc4)CC[C@@H]23)[C@@]2(C)CC[C@@H](O)C[C@@H]12`
Marked response: > 7.00

Exam item: State its pEC50 for this compound: `CC[C@H]1[C@@H](O)[C@@H]2[C@H](CC[C@]3(C)[C@@H]([C@H](C)CCNC(=O)NS(=O)(=O)NC)CC[C@@H]23)[C@@]2(C)CC[C@@H](OC(=O)C(F)(F)F)C[C@@H]12`
Marked response: 5.00 to 6.00

Exam item: State its pEC50 for this compound: `CC[C@H]1[C@@H](O)[C@@H]2[C@H](CC[C@]3(C)[C@@H]([C@H](C)CCNC(=O)NS(=O)(=O)c4ccc(-c5cnc(C)o5)cc4C)CC[C@@H]23)[C@@]2(C)CC[C@@H](O)C[C@@H]12`
Marked response: 6.00 to 7.00

Exam item: State its pEC50 for this compound: `CC[C@H]1[C@@H](O)[C@@H]2[C@H](CC[C@]3(C)[C@@H]([C@H](C)CCNC(=O)NS(=O)(=O)c4cccc(N(C)C)c4)CC[C@@H]23)[C@@]2(C)CC[C@@H](O)C[C@@H]12`
Marked response: > 7.00

Exam item: State its pEC50 for this compound: `CC[C@H]1[C@@H](O)[C@@H]2[C@H](CC[C@]3(C)[C@@H]([C@H](C)CCNC(=O)NS(=O)(=O)N4C[C@@H](C)O[C@@H](C)C4)CC[C@@H]23)[C@@]2(C)CC[C@@H](O)C[C@@H]12`
Marked response: > 7.00

Exam item: State its pEC50 for this compound: `CC[C@H]1[C@@H](O)[C@@H]2[C@H](CC[C@]3(C)[C@@H]([C@H](C)CCNC(=O)NS(=O)(=O)N4CCC5(CC4)CC5)CC[C@@H]23)[C@@]2(C)CC[C@@H](O)C[C@@H]12`
Marked response: > 7.00
